Target: Casein kinase I isoform delta (Homo sapiens)
Sequence (P48730 whole entry, canonical isoform): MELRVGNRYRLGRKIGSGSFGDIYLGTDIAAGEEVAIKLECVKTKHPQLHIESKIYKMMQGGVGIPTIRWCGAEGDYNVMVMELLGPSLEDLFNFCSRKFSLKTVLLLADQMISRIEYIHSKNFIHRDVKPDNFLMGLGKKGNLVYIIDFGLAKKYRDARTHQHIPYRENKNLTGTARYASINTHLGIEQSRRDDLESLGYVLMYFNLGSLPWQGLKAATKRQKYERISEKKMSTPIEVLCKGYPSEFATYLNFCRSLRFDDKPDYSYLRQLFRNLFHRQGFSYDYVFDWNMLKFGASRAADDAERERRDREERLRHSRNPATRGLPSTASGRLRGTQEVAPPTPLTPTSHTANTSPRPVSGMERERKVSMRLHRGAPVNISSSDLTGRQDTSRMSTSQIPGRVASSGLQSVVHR
Assay: Inhibition of N-terminal GST-tagged recombinant human CK1 delta expressed in Escherichia coli BL21 cells using PLSRTL-pS-VA-pS-LPGL as substrate measured after 60 mins in presence of ATP by ADP-Glo assay
measured.endpoint: IC50 (nM)
Give just the number in nM; leave the unit off.

Cn1cc(-c2ccnc3[nH]ncc23)c(-c2ccc(F)cc2)n1 = 1.4

Okay, next one:
Prompt line: Give the reported IC50 for this compound. Cn1cc(-c2ccnc3[nH]ccc23)c(-c2ccc(F)cc2)n1
Response line: 2.2

* * *

Here the recorded inhibition is given for each entry.
Molecular target: Receptor-interacting serine/threonine-protein kinase 2 (Homo sapiens)
Assay: Inhibition of RIPK2 (unknown origin) at 1 uM by radiometric assay relative to control
Give just the number in %; leave the unit off.

Cn1cc(-c2c(C#N)cnc3[nH]ccc23)c(-c2ccc(F)cn2)n1 = 0
Cc1cnc2[nH]ccc2c1-c1cn(C)nc1-c1ccc(F)cn1 = 0

Prompt line: Give the reported inhibition for this molecule. Fc1ccc(-c2nn3c(c2-c2ccnc4[nH]ccc24)COCC3)nc1
Response line: 10

Prompt line: Give the reported inhibition for this molecule. CC1(C)Cn2nc(-c3ccc(F)cn3)c(-c3ccnc4[nH]ccc34)c2CO1
Response line: 39

Prompt line: Give the reported inhibition for this molecule. Cn1cc(-c2ccnc3[nH]ccc23)c(-c2ccc(F)cn2)n1
Response line: 81

Prompt line: Give the reported inhibition for this molecule. Cn1cc(-c2ccnc3[nH]c(C(F)(F)F)cc23)c(-c2ccc(F)cn2)n1
Response line: 63

Prompt line: Give the reported inhibition for this molecule. Cn1cc(-c2cc(N)nc3[nH]ccc23)c(-c2ccc(F)cn2)n1
Response line: 3
